# assayed target: PPE (porcine pancreas elastase) (Sus scrofa, UniProt P00772)
# Construct: from tissue; host or cells: porcine pancreas
# Sequence (P00772 27-266): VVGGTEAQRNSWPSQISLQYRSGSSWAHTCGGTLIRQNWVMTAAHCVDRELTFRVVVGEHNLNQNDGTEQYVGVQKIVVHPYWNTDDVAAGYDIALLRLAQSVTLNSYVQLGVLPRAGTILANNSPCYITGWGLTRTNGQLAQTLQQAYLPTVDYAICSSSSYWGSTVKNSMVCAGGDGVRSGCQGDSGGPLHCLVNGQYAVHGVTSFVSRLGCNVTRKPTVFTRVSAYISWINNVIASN
# assay overview: Elastase inhibition assay
# Type: biochemical
# applied conditions: porcine pancreas elastase, N-succinyl-(Ala)3-p-nitroanilide, 25 °C 10 min; three experiments; read-out: Elastase inhibitory activity IC50
pIC50: −log10 of the molar value.
recorded endpoint: pIC50

Below, each entry is followed by its recorded pIC50 result.
- O=c1cc(-c2ccc(O)c(O)c2)oc2cc(O)cc(O)c12 [Compound 5, Luteolin]: 3.53
- O=c1cc(-c2ccc(O)cc2)oc2cc(O)cc(O)c12 [Compound 6, Apigenin]: < 3.00
- COc1cc(C(=O)O)ccc1O [Compound 1, Vanillic acid]: < 3.00
- COc1cc(-c2cc(=O)c3c(O)cc(O)cc3o2)cc(OC)c1O [Compound 7, Tricin]: < 3.00

Ask: Fill in the blank: the reported pIC50 of C[C@H]1[C@H](C)CC[C@]2(C(=O)O)CC[C@]3(C)C(=CC[C@@H]4[C@@]5(C)CC[C@H](O)C(C)(C)[C@@H]5CC[C@]43C)[C@H]12 [Ursolic acid, reference compound] is ____.
Reply: 4.01

Ask: Field request: pIC50 | item: Oc1ccc(/C=C/c2cc(O)cc(O)c2)cc1 [Compound 4, Resveratrol]
Reply: < 3.00

Ask: Need pIC50 of OC[C@H]1O[C@@H](Oc2cc(O)cc(/C=C/c3ccc(O)cc3)c2)[C@H](O)[C@@H](O)[C@@H]1O [Compound 2, trans-Piceid] , thanks.
Reply: < 3.00

###

Recorded pIC50 values for a group of compounds are listed next.
# assayed target: mushroom tyrosinase
# assay overview: Tyrosinase inhibition assay
# applied conditions: L-tyrosine, 37 °C 20 min, three experiments, read-out: Tyrosinase inhibitory activity IC50
Remember the convention: pIC50 equals -log10 of concentration in molar.

// below: answered compounds
* Oc1cc(O)cc(/C=C/c2ccc(O)cc2O)c1 | 5.19
* Oc1ccc(/C=C/c2cc(O)cc(O)c2)cc1 | 4.70
* O=c1cc(-c2ccc(O)c(O)c2)oc2cc(O)cc(O)c12 | 4.42

Ask: Which pIC50 is reported for this compound? OC[C@H]1O[C@@H](Oc2ccc(O)cc2)[C@H](O)[C@@H](O)[C@@H]1O
Reply: 3.32

Ask: Entry OC[C@H]1O[C@@H](Oc2cc(O)cc(/C=C/c3ccc(O)cc3)c2)[C@H](O)[C@@H](O)[C@@H]1O [Compound 2, trans-Piceid] has what pIC50?
Reply: 4.29

###

# assayed target: PPE (porcine pancreas elastase) (Sus scrofa, UniProt P00772)
# Construct: from tissue; host or cells: porcine pancreas
# assay overview: Elastase inhibition assay
# Assay type: biochemical
recorded endpoint: IC50

Ask: I would be grateful if you could share the reported IC50 for Oc1cc(O)cc(/C=C/c2ccc(O)cc2O)c1 [Compound 3, Oxyresveratrol] .
Reply: > 1000 µM

The measured values listed here are drawn from paper PMC10965189.
